Species on record: Rattus norvegicus
Test details: Open TG-GATES - Regimen: Daily Repeat
Format: toxicity, organism-based, Sprague-Dawley
Set-up: regimen Daily Repeat, gender Male, age 6 weeks
Conditions used: in vivo, po, 0 mg/kg, […], tissue Blood, route gavage, dose level Control, time 7 day
Measured property: MCH (pg)
Report only the number, with the unit pg understood.

# Compound, Measured property, Assay value
records = [
    ("CCOC(=O)[C@H](CCc1ccccc1)N[C@@H](C)C(=O)N1CCC[C@H]1C(=O)O", "MCH", 21.4),
    ("CN(C)[C@@H]1C(O)=C(C(N)=O)C(=O)[C@@]2(O)C(O)=C3C(=O)c4c(O)cccc4[C@@](C)(O)[C@H]3C[C@@H]12", "MCH", 21.6),
    ("CN1C(C(=O)Nc2ccccn2)=C(O)c2sc(Cl)cc2S1(=O)=O", "MCH", 20.7),
    ("CC(CN1c2ccccc2Sc2ccccc21)N(C)C (configuration not stated)", "MCH", 20.4),
    ("Clc1c(Cl)c(Cl)c(Cl)c(Cl)c1Cl", "MCH", 21.8),
    ("Cc1cccc(Nc2ccccc2C(=O)O)c1C", "MCH", 21.3),
]

Return MCH for the following compound: CC(=O)Nc1nnc(S(N)(=O)=O)s1 [ACETAZOLAMIDE] 21.9

====

Species on record: Rattus norvegicus
Test details: Open TG-GATES - Regimen: Single
Type: toxicity, organism-based, Sprague-Dawley
Design: regimen Single, gender Male, age 6 weeks
Conditions used: in vivo, po, 0 mg/kg, 24 h, tissue Plasma, route gavage, dose level Control
Measured property: LDH (IU/L)
Report only the number, with the unit IU/L understood.

Return LDH for the following compound: `Clc1c(Cl)c(Cl)c(Cl)c(Cl)c1Cl` 203.2

Return LDH for the following compound: `CN(C)[C@@H]1C(O)=C(C(N)=O)C(=O)[C@@]2(O)C(O)=C3C(=O)c4c(O)cccc4[C@@](C)(O)[C@H]3C[C@@H]12` 87.6

Return LDH for the following compound: `CN1C(C(=O)Nc2ccccn2)=C(O)c2sc(Cl)cc2S1(=O)=O` 177.6

Return LDH for the following compound: CC(CN1c2ccccc2Sc2ccccc21)N(C)C (stereo not drawn) 180.6

Return LDH for the following compound: COc1cc([C@@H]2c3cc4c(cc3[C@@H](O[C@@H]3O[C@@H]5CO[C@@H](C)O[C@H]5[C@H](O)[C@H]3O)[C@H]3COC(=O)[C@H]23)OCO4)cc(OC)c1O [ETOPOSIDE] 85.2

====

Species: Rattus norvegicus
Test details: Open TG-GATES - Regimen: Daily Repeat
Assay type: toxicity, organism-based, Sprague-Dawley
Design: regimen Daily Repeat, gender Male, age 6 weeks
Conditions used: in vivo, po, 0 mg/kg, […], tissue Plasma, route gavage, dose level Control, time 28 day
Measured property: gamma-GTP (IU/L)
Report only the number, with the unit IU/L understood.

# Compound, gamma-GTP / IU/L
measured = [
    ("CCOC(=O)[C@H](CCc1ccccc1)N[C@@H](C)C(=O)N1CCC[C@H]1C(=O)O", 1.4),
    ("CC(CN1c2ccccc2Sc2ccccc21)N(C)C (stereo not given)", 2.6),
    ("CN(C)[C@@H]1C(O)=C(C(N)=O)C(=O)[C@@]2(O)C(O)=C3C(=O)c4c(O)cccc4[C@@](C)(O)[C@H]3C[C@@H]12", 1),
    ("Clc1c(Cl)c(Cl)c(Cl)c(Cl)c1Cl", 1),
    ("CC(=O)Nc1nnc(S(N)(=O)=O)s1 [ACETAZOLAMIDE]", 2.2),
    ("Cc1cccc(Nc2ccccc2C(=O)O)c1C", 1.6),
]

Return gamma-GTP for the following compound: `C#C[C@]1(O)CC[C@H]2[C@@H]3CCC4=Cc5oncc5C[C@]4(C)[C@H]3CC[C@@]21C` 3.4

Return gamma-GTP for the following compound: C1CCC(C(CC2CCCCN2)C2CCCCC2)CC1 (stereo not given) 1.4

Return gamma-GTP for the following compound: `CN1C(C(=O)Nc2ccccn2)=C(O)c2sc(Cl)cc2S1(=O)=O` 1.2

Return gamma-GTP for the following compound: `O=C(O)Cc1ccccc1Nc1c(Cl)cccc1Cl` 0.8

====

Each entry below carries its recorded RALB.
Species on record: Rattus norvegicus
Test details: Open TG-GATES - Regimen: Single
Assay type: toxicity, organism-based, Sprague-Dawley
Design: regimen Single, gender Male, age 6 weeks
Conditions used: in vivo, po, 0 mg/kg, 24 h, tissue Plasma, route gavage, dose level Control

Return RALB for the following compound: COc1cc([C@@H]2c3cc4c(cc3[C@@H](O[C@@H]3O[C@@H]5CO[C@@H](C)O[C@H]5[C@H](O)[C@H]3O)[C@H]3COC(=O)[C@H]23)OCO4)cc(OC)c1O [ETOPOSIDE] 3.6 g/dL

Return RALB for the following compound: CC(CN1c2ccccc2Sc2ccccc21)N(C)C (stereo unspecified) [PROMETHAZINE] 3.1 g/dL

====

Each entry below carries its recorded Ca.
Species on record: Rattus norvegicus
Test details: Open TG-GATES - Regimen: Daily Repeat
Assay type: toxicity, organism-based, Sprague-Dawley
Design: regimen Daily Repeat, gender Male, age 6 weeks
Conditions used: in vivo, po, 0 mg/kg, […], tissue Plasma, route gavage, dose level Control, time 28 day

Worked set:
# Compound, Ca
data = [
    ("O=C(O)Cc1ccccc1Nc1c(Cl)cccc1Cl", "10.3 mg/dL"),
    ("CC(CN1c2ccccc2Sc2ccccc21)N(C)C (stereo not drawn)", "10.4 mg/dL"),
    ("C1CCC(C(CC2CCCCN2)C2CCCCC2)CC1 (stereo not drawn)", "10.1 mg/dL"),
    ("CN(C)[C@@H]1C(O)=C(C(N)=O)C(=O)[C@@]2(O)C(O)=C3C(=O)c4c(O)cccc4[C@@](C)(O)[C@H]3C[C@@H]12", "10.9 mg/dL"),
]

Return Ca for the following compound: `CCOC(=O)[C@H](CCc1ccccc1)N[C@@H](C)C(=O)N1CCC[C@H]1C(=O)O` 10.7 mg/dL

Return Ca for the following compound: `CN1C(C(=O)Nc2ccccn2)=C(O)c2sc(Cl)cc2S1(=O)=O` 10.1 mg/dL

Return Ca for the following compound: `Cc1cccc(Nc2ccccc2C(=O)O)c1C` 10.6 mg/dL

Return Ca for the following compound: `Clc1c(Cl)c(Cl)c(Cl)c(Cl)c1Cl` 10.6 mg/dL

====

Each entry below carries its recorded LIVER.
Species on record: Rattus norvegicus
Test details: Open TG-GATES - Regimen: Daily Repeat
Format: toxicity, organism-based, Sprague-Dawley
Parameters: regimen Daily Repeat, gender Male, age 6 weeks
Conditions used: in vivo, po, 0 mg/kg, […], tissue Liver, route gavage, dose level Control, time 7 day
Report only the number, with the unit g understood.

Worked set:
# Compound, Measured property, Assay value
rows = [
    ("Clc1c(Cl)c(Cl)c(Cl)c(Cl)c1Cl", "LIVER", 12.9),
    ("CN1C(C(=O)Nc2ccccn2)=C(O)c2sc(Cl)cc2S1(=O)=O", "LIVER", 13),
    ("C#C[C@]1(O)CC[C@H]2[C@@H]3CCC4=Cc5oncc5C[C@]4(C)[C@H]3CC[C@@]21C", "LIVER", 12),
    ("CC(CN1c2ccccc2Sc2ccccc21)N(C)C (stereo not given)", "LIVER", 12.3),
]

Return LIVER for the following compound: `CN(C)[C@@H]1C(O)=C(C(N)=O)C(=O)[C@@]2(O)C(O)=C3C(=O)c4c(O)cccc4[C@@](C)(O)[C@H]3C[C@@H]12` 10.9

====

Each entry below carries its recorded Bas.
Species on record: Rattus norvegicus
Test details: Open TG-GATES - Regimen: Single
Type: toxicity, organism-based, Sprague-Dawley
Set-up: regimen Single, gender Male, age 6 weeks
Conditions used: in vivo, po, 0 mg/kg, 24 h, tissue Blood, route gavage, dose level Control
Report only the number, with the unit % understood.

# Molecule, Measured property, Assay value
data = [
    ("CN1C(C(=O)Nc2ccccn2)=C(O)c2sc(Cl)cc2S1(=O)=O", "Bas", 0.2),
    ("CC(CN1c2ccccc2Sc2ccccc21)N(C)C (stereo not drawn)", "Bas", 0),
]

Now for the molecule whose Bas we want.
Return Bas for the following molecule: `CCOC(=O)[C@H](CCc1ccccc1)N[C@@H](C)C(=O)N1CCC[C@H]1C(=O)O` 0

====

Species on record: Rattus norvegicus
Test details: Open TG-GATES - Regimen: Daily Repeat
Assay type: toxicity, organism-based, Sprague-Dawley
Design: regimen Daily Repeat, gender Male, age 6 weeks
Conditions used: in vivo, po, 0 mg/kg, […], tissue Blood, route gavage, dose level Control, time 7 day
Measured property: Neu (%)
Report only the number, with the unit % understood.

Worked set:
# Molecule, Measured property, Assay value
records = [
    ("CN(C)[C@@H]1C(O)=C(C(N)=O)C(=O)[C@@]2(O)C(O)=C3C(=O)c4c(O)cccc4[C@@](C)(O)[C@H]3C[C@@H]12 [TETRACYCLINE]", "Neu", 12),
    ("CC(CN1c2ccccc2Sc2ccccc21)N(C)C (centres undefined) [PROMETHAZINE]", "Neu", 12.2),
    ("CC(=O)Nc1nnc(S(N)(=O)=O)s1 [ACETAZOLAMIDE]", "Neu", 11.8),
    ("CN1C(C(=O)Nc2ccccn2)=C(O)c2sc(Cl)cc2S1(=O)=O [LORNOXICAM]", "Neu", 13.8),
    ("CCOC(=O)[C@H](CCc1ccccc1)N[C@@H](C)C(=O)N1CCC[C@H]1C(=O)O", "Neu", 14),
]

Now for the molecule whose Neu we want.
Return Neu for the following molecule: C#C[C@]1(O)CC[C@H]2[C@@H]3CCC4=Cc5oncc5C[C@]4(C)[C@H]3CC[C@@]21C [DANAZOL] 18.8
